- Tested on: HepG2
- assay.details: Cytotoxicity against human HepG2 cells after 72 hrs by MTT assay
- Assay type: functional, cell-based
- measurement.context: HepG2, 72 h
metric.name: IC50

// fetch IC50 given entry `Cc1ccc(S(=O)(=O)Oc2ccc(NCc3ccccc3)c3c2C(=O)c2ccccc2C3=O)cc1`
> 5.7 µM

###

- assay.details: Cytotoxicity against human KATO III cells after 72 hrs by MTT assay
- Type: functional, cell-based, KATO III cell
pIC50: −log10 of the molar value.
metric.name: pIC50

// fetch pIC50 given entry `Cc1ccc(S(=O)(=O)Oc2ccc(NCc3ccccc3)c3c2C(=O)c2ccccc2C3=O)cc1`
< 5.24

###

- Tested on: SW-620
- assay.details: Cytotoxicity against human SW620 cells at 10 uM after 72 hrs by MTT assay
- Type: functional
metric.name: Activity (%)
Numbers only, in %.

Look over these answered cases.
Report value: Activity, system: SW-620, compound: `Cc1ccc(S(=O)(=O)Oc2ccc(NCCN3CCOCC3)c3c2C(=O)c2ccccc2C3=O)cc1`
19.4

Report value: Activity, system: SW-620, compound: `Cc1ccc(S(=O)(=O)Oc2ccc(NCc3ccccc3)c3c2C(=O)c2ccccc2C3=O)cc1`
49.1

Report value: Activity, system: SW-620, compound: `Cc1ccc(S(=O)(=O)Oc2ccc(NCCc3ccccc3)c3c2C(=O)c2ccccc2C3=O)cc1`
49.5

Dear reader, for each entry below, please note its Activity.
1. Cc1ccc(S(=O)(=O)Oc2ccc(OS(=O)(=O)c3ccc(C)cc3)c3c2C(=O)c2ccccc2C3=O)cc1
2. CCN(CC)c1ccc(OS(=O)(=O)c2ccc(C)cc2)c2c1C(=O)c1ccccc1C2=O
3. Cc1ccc(S(=O)(=O)Oc2ccc(N3CCOCC3)c3c2C(=O)c2ccccc2C3=O)cc1
4. O=C1c2ccccc2C(=O)c2c(O)ccc(O)c21

1: 22.2; 2: 32.6; 3: 22.3; 4: 21.1
